Target: human GRP receptor (human, UniProt P30550 1-384)
Sequence (P30550 whole entry): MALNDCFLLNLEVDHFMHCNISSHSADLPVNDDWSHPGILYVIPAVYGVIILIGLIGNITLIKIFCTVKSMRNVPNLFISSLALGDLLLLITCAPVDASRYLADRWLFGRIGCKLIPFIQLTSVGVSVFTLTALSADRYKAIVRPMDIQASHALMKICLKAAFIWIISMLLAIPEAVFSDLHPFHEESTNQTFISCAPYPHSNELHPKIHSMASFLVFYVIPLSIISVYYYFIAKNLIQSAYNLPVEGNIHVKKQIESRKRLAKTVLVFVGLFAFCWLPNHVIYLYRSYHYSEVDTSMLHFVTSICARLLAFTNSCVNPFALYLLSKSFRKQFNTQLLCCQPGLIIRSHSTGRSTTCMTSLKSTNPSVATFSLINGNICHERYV
Experiment: cell-based or functional assay
Starred links: 1 amine or outer side, 2 acyl side, 3 side chain; linkers in the order of their positions; H or OH if unused. Non-standard residues stand in square brackets, D forms with d. No end group written: not given here. *: point of attachment. Trp(7-F) = N[C@@H](Cc1c[nH]c2c(F)cccc12)C(=O)O; C20 diacid = O=C(O)CCCCCCCCCCCCCCCCCCC(=O)*; d(γGlu) = O=C(O)[C@@H](CCC(=O)[*:2])N[*:1]; C18 diacid = O=C(O)CCCCCCCCCCCCCCCCC(=O)*; γGlu = O=C(O)[C@H](CCC(=O)[*:2])N[*:1]; 3Pal = N[C@@H](Cc1cccnc1)C(=O)O; Nle = CCCC[C@H](N)C(=O)O; AEEA = NCCOCCOCC(=O)O; Sar = CNCC(=O)O
measured-metric: hIP1 GRPR EC50 (nM)

binder: {C20 diacid}-[γGlu][AEEA][AEEA]GQHWAV[dA]HL[Nle]-NH2 (SMILES CCCC[C@H](NC(=O)[C@H](CC(C)C)NC(=O)[C@H](Cc1c[nH]cn1)NC(=O)[C@@H](C)NC(=O)[C@@H](NC(=O)[C@H](C)NC(=O)[C@H](Cc1c[nH]c2ccccc12)NC(=O)[C@H](Cc1c[nH]cn1)NC(=O)[C@H](CCC(N)=O)NC(=O)CNC(=O)COCCOCCNC(=O)COCCOCCNC(=O)CC[C@H](NC(=O)CCCCCCCCCCCCCCCCCCC(=O)O)C(=O)O)C(C)C)C(N)=O) [Peptide 151]
measurement-units: nM
hIP1 GRPR EC50: 2.92
//
binder: {C18 diacid}-[d(γGlu)][AEEA][AEEA]GEHWAV[dA][3Pal]L[Nle]-NH2 (SMILES CCCC[C@H](NC(=O)[C@H](CC(C)C)NC(=O)[C@H](Cc1cccnc1)NC(=O)[C@@H](C)NC(=O)[C@@H](NC(=O)[C@H](C)NC(=O)[C@H](Cc1c[nH]c2ccccc12)NC(=O)[C@H](Cc1c[nH]cn1)NC(=O)[C@H](CCC(=O)O)NC(=O)CNC(=O)COCCOCCNC(=O)COCCOCCNC(=O)CC[C@@H](NC(=O)CCCCCCCCCCCCCCCCC(=O)O)C(=O)O)C(C)C)C(N)=O) [Peptide 67]
measurement-units: nM
hIP1 GRPR EC50: 1050
//
binder: {C18 diacid}-[d(γGlu)][AEEA][AEEA][AEEA][AEEA]GNHWAV[dA]HL[Nle]-NH2 (SMILES CCCC[C@H](NC(=O)[C@H](CC(C)C)NC(=O)[C@H](Cc1c[nH]cn1)NC(=O)[C@@H](C)NC(=O)[C@@H](NC(=O)[C@H](C)NC(=O)[C@H](Cc1c[nH]c2ccccc12)NC(=O)[C@H](Cc1c[nH]cn1)NC(=O)[C@H](CC(N)=O)NC(=O)CNC(=O)COCCOCCNC(=O)COCCOCCNC(=O)COCCOCCNC(=O)COCCOCCNC(=O)CC[C@@H](NC(=O)CCCCCCCCCCCCCCCCC(=O)O)C(=O)O)C(C)C)C(N)=O) [Peptide 53]
measurement-units: nM
hIP1 GRPR EC50: 42
//
binder: {C18 diacid}-[γGlu][AEEA][AEEA][AEEA][AEEA]GRH[Trp(7-F)]AV[dA]HL[Nle][Sar]-NH2 (SMILES CCCC[C@H](NC(=O)[C@H](CC(C)C)NC(=O)[C@H](Cc1c[nH]cn1)NC(=O)[C@@H](C)NC(=O)[C@@H](NC(=O)[C@H](C)NC(=O)[C@H](Cc1c[nH]c2c(F)cccc12)NC(=O)[C@H](Cc1c[nH]cn1)NC(=O)[C@H](CCCNC(=N)N)NC(=O)CNC(=O)COCCOCCNC(=O)COCCOCCNC(=O)COCCOCCNC(=O)COCCOCCNC(=O)CC[C@H](NC(=O)CCCCCCCCCCCCCCCCC(=O)O)C(=O)O)C(C)C)C(=O)N(C)CC(N)=O) [Peptide 137]
measurement-units: nM
hIP1 GRPR EC50: 488
//
binder: {C18 diacid}-[γGlu][AEEA][AEEA][AEEA][AEEA]GRHWAV[dA]HL[Nle]-NH2 (SMILES CCCC[C@H](NC(=O)[C@H](CC(C)C)NC(=O)[C@H](Cc1c[nH]cn1)NC(=O)[C@@H](C)NC(=O)[C@@H](NC(=O)[C@H](C)NC(=O)[C@H](Cc1c[nH]c2ccccc12)NC(=O)[C@H](Cc1c[nH]cn1)NC(=O)[C@H](CCCNC(=N)N)NC(=O)CNC(=O)COCCOCCNC(=O)COCCOCCNC(=O)COCCOCCNC(=O)COCCOCCNC(=O)CC[C@H](NC(=O)CCCCCCCCCCCCCCCCC(=O)O)C(=O)O)C(C)C)C(N)=O) [Peptide 118]
measurement-units: nM
hIP1 GRPR EC50: 8.02

(P) {C18 diacid}-[γGlu][AEEA][AEEA]RNHWAV[dA]HL[Nle] [Peptide 156]
(Q) {C18 diacid}-[γGlu][AEEA][AEEA]RRHWAV[dA]HL[Nle] [Peptide 157]
(R) EEXXGNHWAVGHLX (Palmitoyl-γGlu-γGlu-OEG-OEG-Gly-Asn-His-Trp-Ala-Val-Gly-His-Leu-Nle-NH2) [Peptide 240]
Kindly order the items shown according to hIP1 GRPR EC50, from the highest value down. To answer, write out the labels according to the requested order. P, Q, R
(P: 358 nM, Q: 161 nM, R: 11.9 nM)
